target_system: FPR2 (Homo sapiens, UniProt P25090)
Sequence (P25090 1-351): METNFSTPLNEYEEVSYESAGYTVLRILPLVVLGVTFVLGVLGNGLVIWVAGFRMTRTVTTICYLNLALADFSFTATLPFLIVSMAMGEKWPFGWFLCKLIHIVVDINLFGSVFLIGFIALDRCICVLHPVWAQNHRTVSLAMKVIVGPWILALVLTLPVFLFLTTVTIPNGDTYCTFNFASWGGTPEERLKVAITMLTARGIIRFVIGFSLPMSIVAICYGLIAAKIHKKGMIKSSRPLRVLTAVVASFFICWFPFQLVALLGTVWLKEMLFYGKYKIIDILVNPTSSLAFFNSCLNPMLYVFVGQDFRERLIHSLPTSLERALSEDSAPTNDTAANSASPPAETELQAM
method_summary: FPR2 activation by intracellular calcium ion increase (Fura-2/AM) in FPR2-RBL cells
stated_conditions: RBL cells overexpressing FPR2
Non-standard residues stand in square brackets, D forms with d. Residues, ends and D or L forms follow the SMILES beside them. *: point of attachment. Octanoyl = CCCCCCCC(=O)*
property_name: pEC50
Numbers only, as −log10 of the molar value.

Which pEC50 value belongs to CCCCCCCC(=O)N[C@@H](CCCNC(=N)N)C(=O)N[C@@H](Cc1c[nH]c2ccccc12)C(=O)N[C@@H](CCCNC(=N)N)C(=O)N[C@@H](Cc1c[nH]c2ccccc12)C(=O)N[C@@H](CCCNC(=N)N)C(=O)N[C@@H](Cc1ccc(O)cc1)C(=O)N[C@@H](CCSC)C(=O)N[C@H](C(=O)N[C@H](CCSC)C(N)=O)C(C)C [Peptide V8, Oct-RWRWRYMVm-NH2] (Octanoyl-RWRWRYMV[dM]-NH2) ?
8.19

***
// returns reported pEC50 for input CCCCCCCC(=O)N[C@@H](CCCNC(=N)N)C(=O)N[C@@H](Cc1c[nH]c2ccccc12)C(=O)N[C@@H](CCCNC(=N)N)C(=O)N[C@@H](Cc1c[nH]c2ccccc12)C(=O)N[C@@H](CCCNC(=N)N)C(=O)N[C@@H](Cc1c[nH]c2ccccc12)C(=O)N[C@@H](CCSC)C(=O)N[C@H](C(=O)N[C@H](CCSC)C(N)=O)C(C)C [Peptide V9, Oct-RWRWRWMVm-NH2] (Octanoyl-RWRWRWMV[dM]-NH2)
8.33

----------
Test system: S. aureus
Assay type: cell-based, Staphylococcus aureus
stated_conditions: 18 h
Protocol: The present inventors evaluated […] in order to select peptides showing excellent performance among various peptides synthesized in the Example 1. […] The next day, the bacteria were diluted to measure absorbance at 600 nm, adjusted to OD600=0.5, and diluted in a 1:100 ratio in nutrient medium. […] Subsequently, the mixture was stirred under conditions of 36° C. and 220 rpm, and incubated for 18 hours, and absorbance at 600 nm was measured. […]
Non-standard residues stand in square brackets, D forms with d. Residues, ends and D or L forms follow the SMILES beside them. *: point of attachment. 2Nal = N[C@@H](Cc1ccc2ccccc2c1)C(=O)O; Nle = CCCC[C@H](N)C(=O)O; Octanoyl = CCCCCCCC(=O)*
Exercise: state measured Antimicrobial activity (IC50, μg/ml) S. aureus for each of the compounds provided.
Answers are plain numbers, in µg/mL.

Check out these entries, answers already filled in.
Need Antimicrobial activity (IC50, μg/ml) S. aureus of CCCCCCCC(=O)N[C@@H](CCCCN)C(=O)N[C@@H](Cc1c[nH]c2ccccc12)C(=O)N[C@@H](CCCCN)C(=O)N[C@@H](Cc1c[nH]c2ccccc12)C(=O)N[C@@H](CCCC)C(=O)N[C@@H](Cc1ccc(O)cc1)C(=O)N[C@H](CCSC)C(N)=O [Peptide V4, Oct-KWKW-Nle-Ym-NH2] (Octanoyl-KWKW[Nle]Y[dM]-NH2) , thanks.
5.1

Same thing, different compound: CSCC[C@@H](NC(=O)[C@H](Cc1c[nH]c2ccccc12)NC(=O)[C@H](CCCNC(=N)N)NC(=O)[C@H](Cc1c[nH]c2ccccc12)NC(=O)[C@H](Cc1c[nH]c2ccccc12)NC(=O)[C@H](CCCNC(=N)N)NC(=O)[C@H](CCCNC(=N)N)NC(C)=O)C(N)=O [Peptide V24_Ac, Ac-RRWWRWm-NH2] (Ac-RRWWRW[dM]-NH2)
24.0

Please find the next compound below.
Recorded Antimicrobial activity (IC50, μg/ml) S. aureus of N=C(N)NCCC[C@H](NC(=O)[C@H](Cc1c[nH]c2ccccc12)NC(=O)[C@@H](N)CCCNC(=N)N)C(=O)N[C@@H](Cc1c[nH]c2ccccc12)C(=O)N[C@@H](Cc1ccc2ccccc2c1)C(=O)N[C@@H](Cc1c[nH]c2ccccc12)C(N)=O [Peptide V16_0, RWRWZW-NH2] (H-RWRW[2Nal]W-NH2) , please.
30.2

----------
Test system: P. aeruginosa
Type: cell-based, Pseudomonas aeruginosa
stated_conditions: 18 h
Non-standard residues stand in square brackets, D forms with d. Residues, ends and D or L forms follow the SMILES beside them. *: point of attachment. 2Nal = N[C@@H](Cc1ccc2ccccc2c1)C(=O)O; Octanoyl = CCCCCCCC(=O)*
property_name: Antimicrobial activity (IC50, μg/ml) P. aeruginosa (µg/mL)
Numbers only, in µg/mL.

Please state recorded Antimicrobial activity (IC50, μg/ml) P. aeruginosa (tested on P. aeruginosa) of CCCCCCCC(=O)N[C@@H](CCCNC(=N)N)C(=O)N[C@@H](Cc1c[nH]c2ccccc12)C(=O)N[C@@H](CCCNC(=N)N)C(=O)N[C@@H](Cc1c[nH]c2ccccc12)C(=O)N[C@@H](Cc1ccc2ccccc2c1)C(=O)N[C@@H](Cc1c[nH]c2ccccc12)C(N)=O [Peptide V16, Oct-RWRWZW-NH2] (Octanoyl-RWRW[2Nal]W-NH2)
7.3

New cases:
Form: Entry = CCCCCCCC(=O)N[C@@H](CCCNC(=N)N)C(=O)N[C@@H](Cc1c[nH]c2ccccc12)C(=O)N[C@@H](CCCNC(=N)N)C(=O)N[C@@H](Cc1c[nH]c2ccccc12)C(=O)N[C@@H](CCCNC(=N)N)C(=O)N[C@@H](Cc1ccc(O)cc1)C(=O)N[C@@H](CCSC)C(=O)N[C@H](C(=O)N[C@H](CCSC)C(N)=O)C(C)C [Peptide V8, Oct-RWRWRYMVm-NH2] (Octanoyl-RWRWRYMV[dM]-NH2) | System = P. aeruginosa | Antimicrobial activity (IC50, μg/ml) P. aeruginosa = ____
24.4
